Catalogue of T/C values
system: nude mice, LX-1 lung xenograft intrarenal, tumor weight T/C; test: NCI In Vivo Anticancer Drug Screen. Data for tumor model Human Lung LX-1 Xenograft (intrarenal inoculation) in NU/NU Swiss (nude) mice; settings: endpoint: mean tumor weight change; dose: 37.5 mg/kg/injection; schedule: Q04DX003 (sc); vehicle: saline with Tween-80; higher = larger tumour
Inconclusive results are not listed.

In the examples that follow, each entry is paired with its recorded T/C.
- compound: "CCC[P+](c1ccccc1)(c1ccccc1)c1ccccc1"
  system_name: "nude mice, LX-1 lung xenograft intrarenal, tumor weight T/C"
  T/C: "83 % of control"
- compound: "OC1CCCC2CCCNC12 (stereo not drawn)"
  system_name: "nude mice, LX-1 lung xenograft intrarenal, tumor weight T/C"
  T/C: "81 % of control"
- compound: "CCc1nc(N)nc(N)c1-c1ccc(Cl)c([N+](=O)[O-])c1"
  system_name: "nude mice, LX-1 lung xenograft intrarenal, tumor weight T/C"
  T/C: "99 % of control"
- compound: "c1ccc2c(c1)-c1ccccc1C1NC21 (stereo not drawn)"
  system_name: "nude mice, LX-1 lung xenograft intrarenal, tumor weight T/C"
  T/C: "82 % of control"
- compound: "CN=S(=O)(OCCCCCOS(=O)(=NC)c1ccc(C)cc1)c1ccc(C)cc1 (stereo not drawn)"
  system_name: "nude mice, LX-1 lung xenograft intrarenal, tumor weight T/C"
  T/C: "72 % of control"
- compound: "Cc1cc2c(C(C)C)c(O)c(O)c(C=O)c2c(O)c1-c1c(C)cc2c(C(C)C)c(O)c(O)c(C=O)c2c1O"
  system_name: "nude mice, LX-1 lung xenograft intrarenal, tumor weight T/C"
  T/C: "85 % of control"
- compound: "CNC(=O)n1c(N)nc(-c2ccccc2)c1-c1ccccc1"
  system_name: "nude mice, LX-1 lung xenograft intrarenal, tumor weight T/C"
  T/C: "114 % of control"

Would you kindly look at the next entry?
So for COC(=O)C(F)C(Br)C(=O)OC (stereo not drawn) , the logged T/C turned out to be 111 % of control

* * *

test system: nude mice, LX-1 lung xenograft intrarenal, tumor weight T/C; assay: NCI In Vivo Anticancer Drug Screen. Data for tumor model Human Lung LX-1 Xenograft (intrarenal inoculation) in NU/NU Swiss (nude) mice; details: endpoint: mean tumor weight change; dose: 6.0 mg/kg/injection; schedule: Q04DX003 (sc); vehicle: Klucel (hydroxypropylcellulose) (HPC); higher = larger tumour
Results filed as inconclusive are left out.
Known T/C of a selection of compounds

Some entries whose results are on file:
- compound: "CC1CC(C)CC(C)C(O)/C(C#N)=C/C=C/CC(C2CCCC2C(=O)O)OC(=O)CC(O)C(C)C1 (centres undefined)"
  T/C: "117 % of control"
- compound: "C[C@H](N)C(=O)N[C@@H]1[C@H]2C(=C(O)C[C@@H](O)[C@@H]2O)C(=O)O[C@]1(C)C(Cl)Cl"
  T/C: "81 % of control"
- compound: "CCN1/C(=C/C(C)=C/c2sc3ccc4ccccc4c3[n+]2CC)Sc2ccc3ccccc3c21"
  T/C: "96 % of control"

# input for lookup
Notebook: CC1OC1C(=O)C1(O)C(C)C(O)C23OC2(C(O)c2c(O)cccc2C3=O)C1O (centres undefined) , T/C read as 83 % of control

* * *

test system: nude mice, LX-1 lung xenograft intrarenal, tumor weight T/C; experiment: NCI In Vivo Anticancer Drug Screen. Data for tumor model Human Lung LX-1 Xenograft (intrarenal inoculation) in NU/NU Swiss (nude) mice; conditions: endpoint: mean tumor weight change; dose: 100.0 mg/kg/injection; schedule: Q01DX010 (sc); vehicle: water; higher = larger tumour
Records with an inconclusive call do not appear.
measurement_name: T/C

Answered cases to consult:
- molecule: "O=C(O)c1c2c(nc3ccccc13)Cc1ccccc1-2"
  measurement_name: "T/C"
  assay_value: "39 % of control"
- molecule: "Cn1cnc([N+](=O)[O-])c1[Se]c1nc(N)nc2nc[nH]c12"
  measurement_name: "T/C"
  assay_value: "68 % of control"
- molecule: "COc1cccc2c1C(=O)c1c(O)c3c(c(O)c1C2=O)CC(O)(C(=O)CO)CC3OC1CC(N)C(O)C(C)O1 (stereo not given)"
  measurement_name: "T/C"
  assay_value: "39 % of control"
- molecule: "CC(C)[C@](O)(C(=O)OCC1=CC[N+]2([O-])CC[C@@H](O)[C@@H]12)[C@H](C)O (stereo not given in full)"
  measurement_name: "T/C"
  assay_value: "44 % of control"

Proceed to the following item.
The molecule identified as CC(/C=N/N=C(N)N)=N\N=C(N)N registered its T/C at 58 % of control

* * *

Recorded measurements of T/C, one per entry
tested on: nude mice, LX-1 lung xenograft intrarenal, tumor weight T/C; assay: NCI In Vivo Anticancer Drug Screen. Data for tumor model Human Lung LX-1 Xenograft (intrarenal inoculation) in NU/NU Swiss (nude) mice; details: endpoint: mean tumor weight change; dose: 36.0 mg/kg/injection; schedule: Q04DX003 (sc); vehicle: saline with Tween-80; higher = larger tumour
Results filed as inconclusive are left out.

Entry Nc1ccc(C(OC(=O)c2cc3ccccc3c(Cc3c(O)c(C(=O)OC(c4ccc(N)cc4)(c4ccc(N)cc4)c4ccc(N)cc4)cc4ccccc34)c2O)(c2ccc(N)cc2)c2ccc(N)cc2)cc1 , nude mice, LX-1 lung xenograft intrarenal, tumor weight T/C data, T/C value: 87 % of control

CN(C)CCN1C(=O)c2cccc3cc([N+](=O)[O-])cc(c23)C1=O on nude mice, LX-1 lung xenograft intrarenal, tumor weight T/C gives T/C = 95 % of control

The molecule CCCCCCCCSC1=C(Cl)C(=O)C(OC)=C(OC)C1=O , when measured on nude mice, LX-1 lung xenograft intrarenal, tumor weight T/C, yielded T/C of 81 % of control

Short answer on nude mice, LX-1 lung xenograft intrarenal, tumor weight T/C for O=C1c2cccc3cc([N+](=O)[O-])cc(c23)C(=O)N1CCN1CCCC1 , T/C: 74 % of control

Form: item C1CCC2C[N-]CCC2C1.C1CCC2C[N-]CCC2C1.C1CCC2C[N-]CCC2C1.C1CCC2C[N-]CCC2C1.[Cl][Rh][Cl] (stereo not given) ; test system nude mice, LX-1 lung xenograft intrarenal, tumor weight T/C; T/C: 60 % of control

* * *

Catalogue of T/C readings, one per entry.
test system: nude mice, LX-1 lung xenograft intrarenal, tumor weight T/C; test: NCI In Vivo Anticancer Drug Screen. Data for tumor model Human Lung LX-1 Xenograft (intrarenal inoculation) in NU/NU Swiss (nude) mice; details: endpoint: mean tumor weight change; dose: 6.25 mg/kg/injection; schedule: Q01DX010 (sc); vehicle: Klucel (hydroxypropylcellulose) (HPC); higher = larger tumour
Inconclusive results are not listed.

- compound_string: "C/C(=C\\c1ccccc1)[N+](=O)[O-]"
  measurement_name: "T/C"
  assay_value: "60 % of control"
- compound_string: "C[C@@H]1C[C@H]2[C@@H]3CCC4=CC(=O)C=C[C@]4(C)[C@@]3(F)[C@@H](O)C[C@]2(C)[C@@]1(O)C(=O)CO"
  measurement_name: "T/C"
  assay_value: "33 % of control"
- compound_string: "S=c1nc[nH]c2nc[nH]c12"
  measurement_name: "T/C"
  assay_value: "120 % of control"

For COc1cc2c(c(OC)c1OC)-c1ccc(OC)c(=O)cc1[C@@H](N)CC2 the compound record lists T/C as 66 % of control

The compound listed as O=C(CCCN1CCC(O)(c2cccc(C(F)(F)F)c2)CC1)c1ccc(F)cc1 shows T/C equal to 52 % of control

* * *

Recorded T/C values for a group of compounds are listed next.
tested on: nude mice, LX-1 lung xenograft intrarenal, tumor weight T/C; experiment: NCI In Vivo Anticancer Drug Screen. Data for tumor model Human Lung LX-1 Xenograft (intrarenal inoculation) in NU/NU Swiss (nude) mice; conditions: endpoint: mean tumor weight change; dose: 100.0 mg/kg/injection; schedule: Q04DX003 (sc); vehicle: Klucel (hydroxypropylcellulose) (HPC); higher = larger tumour
Inconclusive results are not listed.

Solved entries:
- compound: "CCCCCCCCCCCCCCC/C([O-])=N/[N+](C)(C)CC(C)O (stereo not given)"
  assay_value: "66 % of control"
- compound: "O=[N+]([O-])c1ccc(-n2[nH]nnc2=S)cc1"
  assay_value: "84 % of control"
- compound: "COC1=C(NC(C)=O)C(=O)c2nc(-c3nc(C(=O)O)c(C)c(-c4ccc(OC)c(OC)c4O)c3N)ccc2C1=O"
  assay_value: "40 % of control"

Record CSc1nc(=O)[nH]nc1SCc1ccccc1 , field T/C: 101 % of control

Short answer for O=S(=O)(SC(S(=O)(=O)c1ccccc1)S(=O)(=O)c1ccccc1)c1ccccc1 : T/C was 115 % of control

* * *

tested on: nude mice, LX-1 lung xenograft intrarenal, tumor weight T/C; test: NCI In Vivo Anticancer Drug Screen. Data for tumor model Human Lung LX-1 Xenograft (intrarenal inoculation) in NU/NU Swiss (nude) mice; settings: endpoint: mean tumor weight change; dose: 25.0 mg/kg/injection; schedule: Q04DX003 (sc); vehicle: Klucel (hydroxypropylcellulose) (HPC); higher = larger tumour
Inconclusive results are not listed.
Each entry below lists one item and its recorded T/C value.

Consider the following illustrative entries.
- compound: "CC(=O)OCC(=O)[C@@]12OC(C)(C)O[C@@H]1C[C@H]1[C@@H]3CC(C=O)=C4C=C(OCCCl)CC[C@]4(C)[C@@]3(F)[C@@H](O)C[C@@]12C"
  measurement_name: "T/C"
  assay_value: "79 % of control"
- compound: "C/C(=N\\N=C(/[Se])N1CC2CCC(CC2)C1)c1ccccn1"
  measurement_name: "T/C"
  assay_value: "79 % of control"
- compound: "COc1nc(=O)n(C2C=CC(=O)O2)cc1F (centres undefined)"
  measurement_name: "T/C"
  assay_value: "66 % of control"

# T/C (compound: O=C(C#Cc1ccccc1)c1ccccc1 ) is 111 % of control

What the record says about O=C1C=CC(n2cc(F)c(=O)[nH]c2=O)O1 (centres undefined) : T/C is 57 % of control

For COC1=C(NC(C)=O)C(=O)c2nc(-c3nc(C(=O)O)c(C)c(-c4ccc(OC)c(OC)c4O)c3N)ccc2C1=O the compound record lists T/C as 63 % of control

Notebook: N#C[Se-].c1ccc([Te+](c2ccccc2)c2ccccc2)cc1 , T/C read as 82 % of control

The recorded T/C for entry CN(C)N=Nc1cccc(C(N)=O)c1 equals 72 % of control

Record summary for COc1ccc(Cl)[n+]([O-])n1 : reported T/C = 83 % of control
